Biological target: pT7_6His-AlfaTag-HOXD13 (human, UniProt P35453 263-343)
Sequence (P35453 263-343): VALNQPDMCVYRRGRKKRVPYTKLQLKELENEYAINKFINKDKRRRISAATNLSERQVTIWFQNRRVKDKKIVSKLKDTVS
Assay: PADIT-seq
Conditions: dsDNA, one strand shown
Assign binding signal to each entry below.
Answer with a number only, understood to be in log2FC.

// binding signal value for `CTCGAGGATATCAAGATCTGGCCTCGGCCGCATACGCGGAACCTCTAGCTAGCCGACTCACTATAGGGATAATCGCCCTGAGCAAAGACC` : -1.09

// binding signal value for `CTCGAGGATATCAAGATCTGGCCTCGGCGCGCTTGCGGGAACCTCTAGCTAGCCGACTCACTATAGGGATAATCGCCCTGAGCAAAGACC` : -0.651

// binding signal value for `CTCGAGGATATCAAGATCTGGCCTCGGCATTTTAGTAGGAACCTCTAGCTAGCCGACTCACTATAGGGATAATCGCCCTGAGCAAAGACC` : 1.68

// binding signal value for `CTCGAGGATATCAAGATCTGGCCTCGGCGCCATAAAAGGAACCTCTAGCTAGCCGACTCACTATAGGGATAATCGCCCTGAGCAAAGACC` : 2.57

* * *

Target: pT7_6His-AlfaTag-HOXD13 (human, UniProt P35453 263-343)
Assay: PADIT-seq
Settings: dsDNA, one strand shown
Assign binding signal to each entry below.
Answer with a number only, understood to be in log2FC.

// binding signal value for `CTCGAGGATATCAAGATCTGGCCTCGGCTATATAAAAGGAACCTCTAGCTAGCCGACTCACTATAGGGATAATCGCCCTGAGCAAAGACC` : 2.63

// binding signal value for `CTCGAGGATATCAAGATCTGGCCTCGGCATTTTAGGTGGAACCTCTAGCTAGCCGACTCACTATAGGGATAATCGCCCTGAGCAAAGACC` : 0.159

// binding signal value for `CTCGAGGATATCAAGATCTGGCCTCGGCCGTCTAAAAGGAACCTCTAGCTAGCCGACTCACTATAGGGATAATCGCCCTGAGCAAAGACC` : -0.577

// binding signal value for `CTCGAGGATATCAAGATCTGGCCTCGGCACTGTAAAAGGAACCTCTAGCTAGCCGACTCACTATAGGGATAATCGCCCTGAGCAAAGACC` : 1.95

// binding signal value for `CTCGAGGATATCAAGATCTGGCCTCGGCCTTTTACGGGGAACCTCTAGCTAGCCGACTCACTATAGGGATAATCGCCCTGAGCAAAGACC` : 3.14

// binding signal value for `CTCGAGGATATCAAGATCTGGCCTCGGCCGTTTAAAAGGAACCTCTAGCTAGCCGACTCACTATAGGGATAATCGCCCTGAGCAAAGACC` : 1.9

// binding signal value for `CTCGAGGATATCAAGATCTGGCCTCGGCTACCTAAAAGGAACCTCTAGCTAGCCGACTCACTATAGGGATAATCGCCCTGAGCAAAGACC` : -0.459

* * *

Molecular target: pT7_6His-AlfaTag-ZIF268 (human, UniProt P18146 335-423)
Assay: PADIT-seq
Conditions: dsDNA, one strand shown
Test Readout: binding signal (log2FC)
Answer with a number only, understood to be in log2FC.

// binding signal value for `CTCGAGGATATCAAGATCTGGCCTCGGCATTTTAATCGGAACCTCTAGCTAGCCGACTCACTATAGGGATAATCGCCCTGAGCAAAGACC` : 0.0175

// binding signal value for `CTCGAGGATATCAAGATCTGGCCTCGGCCCCCCACGCGGAACCTCTAGCTAGCCGACTCACTATAGGGATAATCGCCCTGAGCAAAGACC` : 0.155

// binding signal value for `CTCGAGGATATCAAGATCTGGCCTCGGCGCGTCAGCGGGAACCTCTAGCTAGCCGACTCACTATAGGGATAATCGCCCTGAGCAAAGACC` : 0.0878

// binding signal value for `CTCGAGGATATCAAGATCTGGCCTCGGCCATCCACGCGGAACCTCTAGCTAGCCGACTCACTATAGGGATAATCGCCCTGAGCAAAGACC` : 0.00839

* * *

Assign binding signal to each entry below.
Target: pT7_6His-AlfaTag-ZIF268 (human, UniProt P18146 335-423)
Assay: PADIT-seq
Settings: dsDNA, one strand shown
Answer with a number only, understood to be in log2FC.

// binding signal value for `CTCGAGGATATCAAGATCTGGCCTCGGCGCGGGGGCGGGAACCTCTAGCTAGCCGACTCACTATAGGGATAATCGCCCTGAGCAAAGACC` : 3.63

// binding signal value for `CTCGAGGATATCAAGATCTGGCCTCGGCGCGAGCGCGGGAACCTCTAGCTAGCCGACTCACTATAGGGATAATCGCCCTGAGCAAAGACC` : 0.0892

// binding signal value for `CTCGAGGATATCAAGATCTGGCCTCGGCCGCCCATGGGGAACCTCTAGCTAGCCGACTCACTATAGGGATAATCGCCCTGAGCAAAGACC` : 0.0348

// binding signal value for `CTCGAGGATATCAAGATCTGGCCTCGGCGAATGGGCGGGAACCTCTAGCTAGCCGACTCACTATAGGGATAATCGCCCTGAGCAAAGACC` : 0.0552

// binding signal value for `CTCGAGGATATCAAGATCTGGCCTCGGCTCGGTAAAAGGAACCTCTAGCTAGCCGACTCACTATAGGGATAATCGCCCTGAGCAAAGACC` : 0.074

// binding signal value for `CTCGAGGATATCAAGATCTGGCCTCGGCCGCCAGCGCGGAACCTCTAGCTAGCCGACTCACTATAGGGATAATCGCCCTGAGCAAAGACC` : 0.462

// binding signal value for `CTCGAGGATATCAAGATCTGGCCTCGGCGCGTGGTCAGGAACCTCTAGCTAGCCGACTCACTATAGGGATAATCGCCCTGAGCAAAGACC` : 0.198

// binding signal value for `CTCGAGGATATCAAGATCTGGCCTCGGCGCGTGGAGGGGAACCTCTAGCTAGCCGACTCACTATAGGGATAATCGCCCTGAGCAAAGACC` : 0.222

// binding signal value for `CTCGAGGATATCAAGATCTGGCCTCGGCTTATTAAAAGGAACCTCTAGCTAGCCGACTCACTATAGGGATAATCGCCCTGAGCAAAGACC` : 0.0487

// binding signal value for `CTCGAGGATATCAAGATCTGGCCTCGGCACAGTAAAAGGAACCTCTAGCTAGCCGACTCACTATAGGGATAATCGCCCTGAGCAAAGACC` : 0.04

// binding signal value for `CTCGAGGATATCAAGATCTGGCCTCGGCGCGTGGATTGGAACCTCTAGCTAGCCGACTCACTATAGGGATAATCGCCCTGAGCAAAGACC` : 0.000823

// binding signal value for `CTCGAGGATATCAAGATCTGGCCTCGGCGCGTGAGCGGGAACCTCTAGCTAGCCGACTCACTATAGGGATAATCGCCCTGAGCAAAGACC` : 0.00935

// binding signal value for `CTCGAGGATATCAAGATCTGGCCTCGGCGCAGTAAAAGGAACCTCTAGCTAGCCGACTCACTATAGGGATAATCGCCCTGAGCAAAGACC` : 0.0357

// binding signal value for `CTCGAGGATATCAAGATCTGGCCTCGGCGTTCCACGCGGAACCTCTAGCTAGCCGACTCACTATAGGGATAATCGCCCTGAGCAAAGACC` : 0.016

// binding signal value for `CTCGAGGATATCAAGATCTGGCCTCGGCCGCCCATACGGAACCTCTAGCTAGCCGACTCACTATAGGGATAATCGCCCTGAGCAAAGACC` : 0.364

* * *

Target: pT7_6His-AlfaTag-HOXD13 (human, UniProt P35453 263-343)
Test: PADIT-seq
Conditions: dsDNA, one strand shown
Test Readout: binding signal (log2FC)
Answer with a number only, understood to be in log2FC.

// binding signal value for `CTCGAGGATATCAAGATCTGGCCTCGGCCAGATAAAAGGAACCTCTAGCTAGCCGACTCACTATAGGGATAATCGCCCTGAGCAAAGACC` : 0.383

// binding signal value for `CTCGAGGATATCAAGATCTGGCCTCGGCTGCGTAAAAGGAACCTCTAGCTAGCCGACTCACTATAGGGATAATCGCCCTGAGCAAAGACC` : 1.22

// binding signal value for `CTCGAGGATATCAAGATCTGGCCTCGGCGAGTTAAAAGGAACCTCTAGCTAGCCGACTCACTATAGGGATAATCGCCCTGAGCAAAGACC` : 0.985

// binding signal value for `CTCGAGGATATCAAGATCTGGCCTCGGCGCGTTTGCGGGAACCTCTAGCTAGCCGACTCACTATAGGGATAATCGCCCTGAGCAAAGACC` : -0.387

// binding signal value for `CTCGAGGATATCAAGATCTGGCCTCGGCGCGTGGGTCGGAACCTCTAGCTAGCCGACTCACTATAGGGATAATCGCCCTGAGCAAAGACC` : -0.691

// binding signal value for `CTCGAGGATATCAAGATCTGGCCTCGGCGTTTTATATGGAACCTCTAGCTAGCCGACTCACTATAGGGATAATCGCCCTGAGCAAAGACC` : 3.04

// binding signal value for `CTCGAGGATATCAAGATCTGGCCTCGGCGCGTGGTTAGGAACCTCTAGCTAGCCGACTCACTATAGGGATAATCGCCCTGAGCAAAGACC` : -0.958

// binding signal value for `CTCGAGGATATCAAGATCTGGCCTCGGCTTCCTAAAAGGAACCTCTAGCTAGCCGACTCACTATAGGGATAATCGCCCTGAGCAAAGACC` : -0.635

// binding signal value for `CTCGAGGATATCAAGATCTGGCCTCGGCCTTTTACCAGGAACCTCTAGCTAGCCGACTCACTATAGGGATAATCGCCCTGAGCAAAGACC` : 0.296

// binding signal value for `CTCGAGGATATCAAGATCTGGCCTCGGCTTTTTACATGGAACCTCTAGCTAGCCGACTCACTATAGGGATAATCGCCCTGAGCAAAGACC` : 2.12

// binding signal value for `CTCGAGGATATCAAGATCTGGCCTCGGCCTTTTACGTGGAACCTCTAGCTAGCCGACTCACTATAGGGATAATCGCCCTGAGCAAAGACC` : 2.16

// binding signal value for `CTCGAGGATATCAAGATCTGGCCTCGGCTTTTTAAGTGGAACCTCTAGCTAGCCGACTCACTATAGGGATAATCGCCCTGAGCAAAGACC` : 1.17

// binding signal value for `CTCGAGGATATCAAGATCTGGCCTCGGCATTTTATACGGAACCTCTAGCTAGCCGACTCACTATAGGGATAATCGCCCTGAGCAAAGACC` : 2.61

// binding signal value for `CTCGAGGATATCAAGATCTGGCCTCGGCGCCCCACGCGGAACCTCTAGCTAGCCGACTCACTATAGGGATAATCGCCCTGAGCAAAGACC` : -0.996

// binding signal value for `CTCGAGGATATCAAGATCTGGCCTCGGCGTTTTACGAGGAACCTCTAGCTAGCCGACTCACTATAGGGATAATCGCCCTGAGCAAAGACC` : 3.47

// binding signal value for `CTCGAGGATATCAAGATCTGGCCTCGGCCTTTTATTAGGAACCTCTAGCTAGCCGACTCACTATAGGGATAATCGCCCTGAGCAAAGACC` : 3.32

// binding signal value for `CTCGAGGATATCAAGATCTGGCCTCGGCAGGGTAAAAGGAACCTCTAGCTAGCCGACTCACTATAGGGATAATCGCCCTGAGCAAAGACC` : -0.13
